measured-on: T1, human IgE (human, UniProt P01854 1-428)
T1 construct: written under the same molecule; also called IgE (Abcam ab65866); soluble IgE
test-details: ELISA, clone lysate on IgE-coated plate
Known Confirm OD450 Duplicate2 of a selection of binders
endpoint: Confirm OD450 Duplicate2

[
  {
    "binder": "9G9 (VHH, also called hzB10v40 VHH, CDR1 site 9 M to T) VHH: EVQLLESGGGEVQPGGSLRLSCVASGLTFSSYNTGWLRQAPGKEREFVGLSGSSSTSTYYAESVKGRFTISRDNAKNTVYLQMTSLRAEDTAVYYCAARRLLSTYWSDRSWDFWGQGTLVTVEP",
    "observed": 0.524
  },
  {
    "binder": "5A1 (VHH, also called hzB10v40 VHH, CDR1 site 5 S to K) VHH: EVQLLESGGGEVQPGGSLRLSCVASGLTFKSYNMGWLRQAPGKEREFVGLSGSSSTSTYYAESVKGRFTISRDNAKNTVYLQMTSLRAEDTAVYYCAARRLLSTYWSDRSWDFWGQGTLVTVEP",
    "observed": 0.573
  },
  {
    "binder": "6C2 (VHH, also called hzB10v40 VHH, CDR1 site 6 S to Q) VHH: EVQLLESGGGEVQPGGSLRLSCVASGLTFSQYNMGWLRQAPGKEREFVGLSGSSSTSTYYAESVKGRFTISRDNAKNTVYLQMTSLRAEDTAVYYCAARRLLSTYWSDRSWDFWGQGTLVTVEP",
    "observed": 0.526
  },
  {
    "binder": "9H9 (VHH, also called hzB10v40 VHH, CDR1 site 9 M to F) VHH: EVQLLESGGGEVQPGGSLRLSCVASGLTFSSYNFGWLRQAPGKEREFVGLSGSSSTSTYYAESVKGRFTISRDNAKNTVYLQMTSLRAEDTAVYYCAARRLLSTYWSDRSWDFWGQGTLVTVEP",
    "observed": 0.5
  },
  {
    "binder": "8F11 (VHH, also called hzB10v40 VHH, CDR1 site 8 N to T) VHH: EVQLLESGGGEVQPGGSLRLSCVASGLTFSSYTMGWLRQAPGKEREFVGLSGSSSTSTYYAESVKGRFTISRDNAKNTVYLQMTSLRAEDTAVYYCAARRLLSTYWSDRSWDFWGQGTLVTVEP",
    "observed": 0.559
  },
  {
    "binder": "35G3 (VHH) VHH: EVQLLESGGGEVQPGGSLRLSCVASGLTFSSYNMGWLRQAPGKEREFVGLSGSSSTSTYYAESVKGRFTISRDNAKNTVYLQMTSLRAEDTAVYYCAARRLLSRYWSDRSWDFWGQGTLVTVEP",
    "observed": 0.612
  },
  {
    "binder": "6G9 (VHH, also called hzB10v40 VHH, CDR1 site 6 S to A) VHH: EVQLLESGGGEVQPGGSLRLSCVASGLTFSAYNMGWLRQAPGKEREFVGLSGSSSTSTYYAESVKGRFTISRDNAKNTVYLQMTSLRAEDTAVYYCAARRLLSTYWSDRSWDFWGQGTLVTVEP",
    "observed": 0.512
  },
  {
    "binder": "33-2C5 (VHH) VHH: EVQLLESGGGEVQPGGSLRLSCVASGLTFSSYNMGWLRQAPGKEREFVGLSGSSSTSTYYAESVKGRFTISRDNAKNTVYLQMTSLRAEDTAVYYCAARRLHSTYWSDRSWDFWGQGTLVTVEP",
    "observed": 0.573
  }
]

Sourced from patent US20250163186A1
